assay details: PSAC antagonists in infected red cells, primary screen, cell-based, P. falciparum Indochina, OD700, 2 h (AID 1155);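 note: lysis reports solute entry through the parasite surface anion channel PSAC; channel blockers reduce lysis of infected cells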
applied conditions: P. falciparum Indochina infected erythrocytes, osmotic lysis OD700; higher = more signal, called active from +8 up or from −8 down
Tag: True if measured z-score is not below 1, False if it is.

These recorded examples may help you get a feel for the data.
{"molecule": "COCCCNC(=O)[C@]1(CCC(=O)OC(C)(C)C)N=C(c2ccc(OCCCO)cc2)O[C@@H]1c1ccccc1CN=[N+]=[N-]", "category label": "True"}
{"molecule": "CCCCCN1CC=CC23O[C@@H]4C=CCCOC(=O)C4[C@H]2C(=O)N(CCCCCO)[C@@H]3C1=O (some centres not stated)", "category label": "True"}
{"molecule": "NC(=O)NCC#Cc1ccc2c(c1)[C@]1(C(=O)N2)[C@H](C(=O)Nc2nc3ccccc3s2)[C@H]2C(=O)O[C@H](c3ccccc3)[C@H](c3ccccc3)N2[C@@H]1c1ccccc1OCCO", "category label": "False"}
{"molecule": "CCOC(=O)C1=C[C@@H](C(C)(C)C)N(S(=O)(=O)c2ccc(C)cc2)[C@H]1c1ccc(F)cc1", "category label": "False"}
{"molecule": "CO[C@H]1O[C@H](CO)[C@@H](OC(=O)Nc2ccccc2)[C@H](OC(=O)Nc2ccccc2)[C@@H]1OC(=O)Nc1ccccc1", "category label": "True"}

Alright, here's another molecule for you.
## Input Is the recorded value of z-score equal to or greater than 1 for this molecule? Cc1ccc(S[C@]2(C(=O)NCCCN(C)C)CC(=O)N(Cc3ccccc3C(F)(F)F)[C@@H]2c2ccc(CO)cc2)cc1
## Output False
